Target: Type I 5α-reductase (Homo sapiens)
Construct: 100,000×g pellet of the lysate
Sequence (P18405 whole entry): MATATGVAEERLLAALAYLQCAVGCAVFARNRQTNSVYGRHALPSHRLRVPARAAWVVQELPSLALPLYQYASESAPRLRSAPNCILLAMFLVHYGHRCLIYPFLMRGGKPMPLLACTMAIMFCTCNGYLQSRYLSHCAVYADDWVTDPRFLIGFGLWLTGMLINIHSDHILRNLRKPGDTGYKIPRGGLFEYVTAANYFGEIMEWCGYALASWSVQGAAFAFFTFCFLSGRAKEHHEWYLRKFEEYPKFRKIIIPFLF
Assay: Inhibition of type I 5α-reductase (14C-testosterone to dihydrotestosterone, transfected COS7 cell lysate)
Details: 40 mM pH 6.5 phosphate buffer, 1 nM 14C-testosterone, 5 mM NADPH, 50 minutes at 37° C.
experimental_endpoint: pIC50
Note on pIC50: it is the negative log10 of concentration, concentration in mol/L.

Query block: So what does the record say about pIC50 for COc1cc(OC)c2cc(C(=O)O)[nH]c2c1 ?
Result block: 4.30

These entries and their values trace back to patent US6541507B1.
